Provenance of the data: patent US20090227619A1

Tested on: Lewis lung cancer
Settings: Lewis lung cancer; Dosage 100, ip × 10qd; second time
metric.name: Body weight of the animals, beginning, Second time (g)
Please give a number only; it is taken to be in g.

Here are 6 compounds together with their reported answers.
[
  {
    "compound": "OCc1cc2c3ccccc3n(Cc3ccccc3)c2cn1 [Compound 42, 9-benzyl-3-hydroxymethyl-β-carboline]",
    "system.name": "Lewis lung cancer",
    "unit.symbol": "g",
    "assay.value": 18.9
  },
  {
    "compound": "CCOC(=O)Nc1cc2c3ccccc3n(Cc3ccccc3)c2cn1 [Compound 55]",
    "system.name": "Lewis lung cancer",
    "unit.symbol": "g",
    "assay.value": 19.7
  },
  {
    "compound": "CCCCn1c2ccccc2c2cc(C(=O)O)ncc21 [Compound 36, 9-butyl-β-carboline-3-carboxylic acid]",
    "system.name": "Lewis lung cancer",
    "unit.symbol": "g",
    "assay.value": 20.1
  },
  {
    "compound": "c1ccc(Cn2c3ccccc3c3ccncc32)cc1 [Compound 84, 9-Benzyl-β-carboline]",
    "system.name": "Lewis lung cancer",
    "unit.symbol": "g",
    "assay.value": 19.4
  },
  {
    "compound": "O=C(O)c1cc2c(cn1)[nH]c1ccccc12 [Compound 17, β-carboline-3-carboxylic acid]",
    "system.name": "Lewis lung cancer",
    "unit.symbol": "g",
    "assay.value": 20.4
  },
  {
    "compound": "CCOC(=O)c1cc2c3ccccc3n(Cc3ccccc3)c2cn1 [Compound 33, ethyl 9-benzyl-β-carboline-3-carboxylate]",
    "system.name": "Lewis lung cancer",
    "unit.symbol": "g",
    "assay.value": 19.0
  }
]

# ---- query compound ----
Qu. Short answer please: Body weight of the animals, beginning, Second time, Lewis lung cancer, entry O=C(O)c1cc2c3ccccc3n(CCCc3ccccc3)c2cn1 [Compound 48]
Ans. 19.3

---

Test system: Lewis lung cancer
Settings: Lewis lung cancer; Dosage 50, ip × 10qd; first time
metric.name: Body weight of the animals, beginning, First time
Reply with the number and its unit after it.

[
  {
    "compound": "CCOC(=O)c1cc2c([nH]c3ccccc32)c(C)n1 [Compound 11, ethyl 1-methyl-β-carboline-3-carboxylate]",
    "assay.value": "18.3 g"
  },
  {
    "compound": "O=C(O)c1cc2c3ccccc3n(CCCc3ccccc3)c2cn1 [Compound 48]",
    "assay.value": "20.1 g"
  },
  {
    "compound": "c1ccc(Cn2c3ccccc3c3ccncc32)cc1 [Compound 84, 9-Benzyl-β-carboline]",
    "assay.value": "19.0 g"
  },
  {
    "compound": "O=C(O)c1cc2c(cn1)[nH]c1ccccc12 [Compound 17, β-carboline-3-carboxylic acid]",
    "assay.value": "19.2 g"
  },
  {
    "compound": "COC(=O)c1cc2c([nH]c3ccccc32)c(-c2ccc(OC)cc2)n1 [Compound 15]",
    "assay.value": "20.4 g"
  }
]

# context switch: different compound, same Body weight of the animals, beginning, First time
Qu. Which measured Body weight of the animals, beginning, First time belongs to CCOC(=O)c1cc2c3ccccc3n(CC)c2cn1 [Compound 31, ethyl 9-ethyl-β-carboline-3-carboxylate] , tested on Lewis lung cancer?;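 note: mice implanted subcutaneously in the axilla with Lewis lung tumor cells, treated starting the following day, killed roughly three weeks after implantation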
Ans. 20.6 g
